As shown below, each of these compounds has a reported pKd value.
TARGET_UNDER_TEST: UniProt:A0A1E3M3A7
Sequence (A0A1E3M3A7 1-249): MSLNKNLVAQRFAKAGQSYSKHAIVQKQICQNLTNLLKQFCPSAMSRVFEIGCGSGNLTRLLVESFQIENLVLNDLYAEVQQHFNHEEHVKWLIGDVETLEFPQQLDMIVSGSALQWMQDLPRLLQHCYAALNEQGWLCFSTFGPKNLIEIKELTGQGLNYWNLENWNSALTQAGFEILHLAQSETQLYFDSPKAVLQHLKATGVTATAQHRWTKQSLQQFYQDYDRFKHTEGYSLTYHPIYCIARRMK
# log scale: pKd equals minus log10 of the concentration in mol/L

>  <COMPOUND>
C[S+](CC[C@H](N)C(=O)[O-])C[C@H]1O[C@@H](n2cnc3c(N)ncnc32)[C@H](O)[C@@H]1O (stereo partly drawn) [SAM, S-adenosyl-L-methionine]

>  <TARGET_UNDER_TEST>
UniProt:A0A1E3M3A7

>  <OBSERVATION_TYPE>
pKd

>  <OBSERVED_RESULT>
5.59

$$$$

// next entry
Query string: If you can, please state the reported pKd value of Nc1ncnc2c1ncn2[C@@H]1O[C@H](C[C@@H](N)CC[C@H](N)C(=O)O)[C@@H](O)[C@H]1O [SIN, sinefungin] .
Result string: 6.09

src = paper PMC11661456
